Recorded pIC50, one value per entry.
Target: PI3Kδ (Homo sapiens, UniProt O00329)
Sequence (O00329 whole entry): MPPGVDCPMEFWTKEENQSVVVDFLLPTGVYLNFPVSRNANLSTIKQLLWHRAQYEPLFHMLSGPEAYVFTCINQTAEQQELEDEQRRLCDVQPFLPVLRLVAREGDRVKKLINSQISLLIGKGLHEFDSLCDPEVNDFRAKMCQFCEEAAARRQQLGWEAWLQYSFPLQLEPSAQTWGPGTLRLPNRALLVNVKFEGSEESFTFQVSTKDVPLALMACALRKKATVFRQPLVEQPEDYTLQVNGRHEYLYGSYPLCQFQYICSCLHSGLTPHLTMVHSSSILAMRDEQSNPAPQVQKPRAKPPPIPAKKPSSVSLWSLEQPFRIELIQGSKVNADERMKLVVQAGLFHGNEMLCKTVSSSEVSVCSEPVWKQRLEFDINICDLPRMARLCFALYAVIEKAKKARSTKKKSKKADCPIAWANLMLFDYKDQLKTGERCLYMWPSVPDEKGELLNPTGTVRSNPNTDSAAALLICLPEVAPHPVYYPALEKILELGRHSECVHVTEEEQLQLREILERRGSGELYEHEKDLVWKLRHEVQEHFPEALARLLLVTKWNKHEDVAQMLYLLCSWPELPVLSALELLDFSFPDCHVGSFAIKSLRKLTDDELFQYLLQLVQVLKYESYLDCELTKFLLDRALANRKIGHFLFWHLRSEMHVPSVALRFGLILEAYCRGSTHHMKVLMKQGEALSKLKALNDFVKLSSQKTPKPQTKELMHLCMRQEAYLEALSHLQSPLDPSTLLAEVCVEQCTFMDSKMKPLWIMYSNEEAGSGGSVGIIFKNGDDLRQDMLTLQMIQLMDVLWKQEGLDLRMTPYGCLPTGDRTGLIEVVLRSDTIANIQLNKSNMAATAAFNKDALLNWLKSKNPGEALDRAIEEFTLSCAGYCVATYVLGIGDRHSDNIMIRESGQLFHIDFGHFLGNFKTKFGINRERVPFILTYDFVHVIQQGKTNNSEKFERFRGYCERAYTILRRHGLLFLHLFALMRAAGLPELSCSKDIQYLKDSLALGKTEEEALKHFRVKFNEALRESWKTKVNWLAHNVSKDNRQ
Sequence (P27986 whole entry partner): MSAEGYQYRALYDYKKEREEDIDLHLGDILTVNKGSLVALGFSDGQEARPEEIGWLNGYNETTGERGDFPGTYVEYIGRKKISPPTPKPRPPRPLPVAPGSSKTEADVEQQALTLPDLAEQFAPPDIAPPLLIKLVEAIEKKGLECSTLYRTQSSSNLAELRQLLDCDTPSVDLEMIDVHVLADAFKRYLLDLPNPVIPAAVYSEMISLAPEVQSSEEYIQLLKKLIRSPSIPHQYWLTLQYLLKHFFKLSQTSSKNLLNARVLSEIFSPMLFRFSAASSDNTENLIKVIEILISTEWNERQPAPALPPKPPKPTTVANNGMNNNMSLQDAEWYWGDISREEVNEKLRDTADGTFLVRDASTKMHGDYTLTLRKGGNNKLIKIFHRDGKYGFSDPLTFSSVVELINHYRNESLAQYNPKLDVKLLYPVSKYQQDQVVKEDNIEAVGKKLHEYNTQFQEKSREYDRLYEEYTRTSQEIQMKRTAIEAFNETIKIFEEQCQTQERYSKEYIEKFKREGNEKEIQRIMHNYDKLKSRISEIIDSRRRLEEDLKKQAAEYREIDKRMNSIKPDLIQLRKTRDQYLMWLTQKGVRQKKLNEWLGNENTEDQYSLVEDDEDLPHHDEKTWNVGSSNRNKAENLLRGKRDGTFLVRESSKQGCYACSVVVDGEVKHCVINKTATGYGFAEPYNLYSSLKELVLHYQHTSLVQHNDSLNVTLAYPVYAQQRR
Assay: PI3Kδ kinase assay (ADP-Glo-based biochemical assay)
Settings: ADP-Glo, n = 3 per dose; read-out: IC50 PI3Kδ
pIC50: −log10 of the molar value. Where a name gives a salt, the structure may show the parent alone.
measured property: pIC50

>>> measurement("CC(C)NCCCn1c(Sc2cc3c(cc2I)OCO3)nc2c(N)ncnc21 [PU-H71]")
4.70
>>> measurement("COc1ccc(CCN2CCC(Nc3nc4ccccc4n3Cc3ccc(F)cc3)CC2)cc1 [astemizole]")
5.22
>>> measurement("CC/C(=C(\\c1ccccc1)c1ccc(OCCN(C)C)cc1)c1ccccc1 [Tamoxifen, tamoxifen]")
5.00
>>> measurement("O=C(c1ccc(OCCN2CCCCC2)cc1)c1c(-c2ccc(O)cc2)sc2cc(O)ccc12 [Raloxifene HCl, raloxifene HCl]")
5.37
>>> measurement("CO[C@H]1/C=C\\C=C(/C)C(=O)NC2=CC(=O)C(NCCN(C)C)=C(C[C@@H](C)C[C@H](OC)[C@H](O)[C@@H](C)/C=C(\\C)[C@@H]1OC(N)=O)C2=O [alvespimycin]")
4.55

----------
Molecular target: PI3Kδ (Homo sapiens, UniProt O00329)
Assay: PI3Kδ kinase assay (ADP-Glo-based biochemical assay)
measured property: IC50 (µM)

>>> measurement("c1nc2nc(Nc3ccc(N4CCOCC4)cc3)nc(NC3CCCCC3)c2[nH]1")
3.5
